protocolDetails: Concentration of active ingredient dissolved in 60% (w/w) aqueous SBECD after filtration, determined by HPLC
Type: physicochemical
reportedConditions: mixed at 34° C. for 48 hours, 0.2 micrometer filter
measurementKind: concentration of active ingredient in filtered solution (mg/g)

Record CC(=O)O[C@H]1C(=O)[C@@]2(C)[C@H]([C@H](OC(=O)c3ccccc3)[C@]3(O)C[C@H](OC(=O)[C@H](O)[C@@H](NC(=O)c4ccccc4)c4ccccc4)C(C)=C1C3(C)C)[C@]1(OC(C)=O)CO[C@@H]1C[C@@H]2O [paclitaxel] , field concentration of active ingredient in filtered solution: 0.4

(1) O=C1CCC(N2C(=O)c3ccccc3C2=O)C(=O)N1 (stereo not shown) [talidomid]
(2) CC(C)Cc1ccc(C(C)C(=O)O)cc1 (stereo not shown) [ibuprofen]
(3) O=c1ccc2ccccc2o1 [coumarin]
// sort entries: concentration of active ingredient in filtered solution, high to low Lab note: record answer as labels in requested order.
2, 3, 1
(2: 78.1 mg/g, 3: 44.3 mg/g, 1: 1.7 mg/g)

Measured values drawn from patent US20110207764A1 for this set.
